# Test system: female BALB/C mice
# METHOD SUMMARY: In vivo imaging in mice of Fluc-mRNA LNP formulations (mRNA expression and duration)
# SETTINGS: 48 h
# Text: […]
Binary call on average radiation intensity, times that of compound 21: TRUE from 10 upward, FALSE beneath that.

| LINE NOTATION | STUDY SYSTEM | CATEGORY LABEL |
| --- | --- | --- |
| CCCCCCCCC(CCCCCCCC)C(=O)OCCCCCCN(CCO)CCN(CCO)CCCCCCOC(=O)C(CCCCCCCC)CCCCCCCC | female BALB/C mice | TRUE |
| CCCCCCCCC(CCCCCCCC)COC(=O)CCCCCN(CCCO)CCN(CCCO)CCCCCC(=O)OCC(CCCCCCCC)CCCCCCCC | female BALB/C mice | FALSE |
| CCCCCCCCC(CCCCCCCC)OC(=O)CCCCCN(CCO)CCN(CCO)CCCCCC(=O)OC(CCCCCCCC)CCCCCCCC | female BALB/C mice | TRUE |
| CCCCCCCCC(CCCCCCCC)COC(=O)CCCCCN(CCCO)CCCN(CCCO)CCCCCC(=O)OCC(CCCCCCCC)CCCCCCCC | female BALB/C mice | TRUE |
